Quick reference: IC50 of the listed items.
system: Jurkat clon E6-1 leukemia; assay: MTT in vitro cytotoxicity, Jurkat; format: cell-based; conditions: Homo sapiens, Jurkat cells, concentrations until 100 µM, incubation until 72 h
MEASURED_ENDPOINT: IC50 (µM)

In [3]: df
Out[3]:
                                   molecule  number
0  CN(CCCNC(=O)c1c2cc(Cl)ccc2nc2c1[nH]c1ccccc12)CCCNC(=O)c1c2cc(Cl)ccc2nc2c1[nH]c1ccccc12    0.09
1  CN(CCCNC(=O)c1c2cc(F)ccc2nc2c1[nH]c1ccccc12)CCCNC(=O)c1c2cc(Cl)ccc2nc2c1[nH]c1ccccc12     0.5
2  CN(CCCNC(=O)c1c2cc(Cl)ccc2nc2c1[nH]c1ccccc12)CCCNC(=O)c1c2cc(Br)ccc2nc2c1[nH]c1ccccc12     0.6
3  CN(CCCNC(=O)c1c2ccccc2nc2c1[nH]c1ccccc12)CCCNC(=O)c1c2ccccc2nc2c1[nH]c1ccccc12 [Ia, reference compound]    0.97
4     O=C(O)c1c2cc(F)ccc2nc2c1[nH]c1ccccc12      13
5  CN(CCCNC(=O)c1c2cc(Br)ccc2nc2c1[nH]c1ccccc12)CCCNC(=O)c1c2cc(Br)ccc2nc2c1[nH]c1ccccc12     0.8
6  CN(CCCNC(=O)c1c2ccccc2nc2c1[nH]c1ccccc12)CCCNC(=O)c1c2cc(Cl)ccc2nc2c1[nH]c1ccccc12     0.7
